Tested on: Staphylococcus hominis
protocol-text: Minimum inhibitory concentration against Staphylococcus hominis (ATCC 27844)
Format: functional
property-measured: MIC50 (µM)
Write the value in µM as a bare number.

C[C@@H](CC[C@@]1(C)[C@H](C)CC[C@]2(C)C(CO)=CCC[C@H]12)CC(=O)O
1240
CN[C@@H]1[C@H](O[C@H]2[C@H](O[C@H]3[C@H](O)[C@@H](O)[C@H](N=C(N)N)[C@@H](O)[C@@H]3N=C(N)N)O[C@@H](C)[C@]2(O)C=O)O[C@@H](CO)[C@H](O)[C@H]1O [STREPTOMYCIN]
2.1
CC(=O)OCC1=CCC[C@@H]2[C@@](C)(CC[C@H](C)CC(=O)O)[C@H](C)CC[C@]12C
85

Query string: If you can, please state the reported MIC50 value of C=C[C@](C)(O)CC[C@@H]1[C@@]2(C)CCCC(C)(C)[C@@H]2CC[C@@]1(C)O [SCLAREOL] .
Result string: 320
